- Test system: Echinochloa crus-galli
- TEST NAME: Post-emergence herbicidal activity against Echinochloa crus-galli (barnyard grass) assessed as growth inhibition at 15 g.a.i./ha applied at one-leaf stage measured after 15 days
- Type: functional
- ASSAY CONTEXT: 360 h, read-out: GI
QUANTITY MEASURED: inhibition of growth at 15 g/ha (%)
# value in %; strip the unit string

Guide cases for inhibition of growth at 15 g/ha, answers given:
{"columns": ["COMPOUND", "RESULT VALUE"],
 "data": [
  ["CCOC(=O)C(C)N1C(=O)C(C)Oc2cc(F)c(N3C(=O)C4=C(CCCC4)C3=O)cc21 (centres undefined)", 30],
  ["C#CCN1C(=O)COc2cc(F)c(N3C(=O)C4=C(CCCC4)C3=O)cc21", 70],
  ["COC(=O)C(C)N1C(=O)C(C)Oc2cc(F)c(N3C(=O)C4=C(CCCC4)C3=O)cc21 (centres undefined)", 30]
]}

Attention now shifts to the item below.
Prompt: I'd like to know its inhibition of growth at 15 g/ha. The compound in question is CCOC(=O)C(CC)N1C(=O)C(C)Oc2cc(F)c(N3C(=O)C4=C(CCCC4)C3=O)cc21 (centres undefined)
Response: 0
